Tested on: Staphylococcus aureus (ATCC 29213)
Type: cell-based
Settings: ATCC 29213, 18 h
Non-standard residues stand in square brackets, D forms with d. Residues, ends and D or L forms follow the SMILES beside them. N(1-naphthylmethyl)Gly = O=C(O)CNCc1cccc2ccccc12; 1Nal = N[C@@H](Cc1cccc2ccccc12)C(=O)O; d1Nal = N[C@H](Cc1cccc2ccccc12)C(=O)O; N(4-MeBn)Gly = Cc1ccc(CNCC(=O)O)cc1; dNle = CCCC[C@@H](N)C(=O)O; Nle = CCCC[C@H](N)C(=O)O; NBuGly = CCCCNCC(=O)O; Nlys = NCCCCNCC(=O)O; Sar = CNCC(=O)O
observable: MIC SA

// below: answered compounds
| compound | test result |
| --- | --- |
| CCCCN(CC(N)=O)C(=O)[C@@H](CCCCN)NC(=O)CN(Cc1cccc2ccccc12)C(=O)[C@@H](CCCCN)NC(=O)CN(Cc1ccc(C)cc1)C(=O)CN(Cc1cccc2ccccc12)C(=O)[C@@H](CCCCN)NC(=O)[C@H](N)CCCCN [compound 16] (H-[dK][dK][N(1-naphthylmethyl)Gly][N(4-MeBn)Gly][dK][N(1-naphthylmethyl)Gly][dK][NBuGly]-NH2; N-terminus assumed) | 16 µg/mL |
| CCCCN(CC(N)=O)C(=O)CN(CCCCN)C(=O)CN(Cc1cccc2ccccc12)C(=O)CN(Cc1cccc2ccccc12)C(=O)CN(Cc1ccc(C)cc1)C(=O)CN(Cc1cccc2ccccc12)C(=O)CN(CCCCN)C(=O)CNCCCCN [compound 11] (H-[Nlys][Nlys][N(1-naphthylmethyl)Gly][N(4-MeBn)Gly][N(1-naphthylmethyl)Gly][N(1-naphthylmethyl)Gly][Nlys][NBuGly]-NH2; N-terminus assumed) | 8 µg/mL |
| CCCC[C@H](NC(=O)[C@H](CCCCN)NC(=O)[C@H](Cc1cccc2ccccc12)NC(=O)[C@H](CCCCN)NC(=O)[C@H](Cc1ccccc1)NC(=O)[C@H](Cc1cccc2ccccc12)NC(=O)[C@H](CCCCN)NC(=O)[C@@H](N)CCCCN)C(N)=O [D2L] (H-KK[1Nal]FK[1Nal]K[Nle]-NH2; N-terminus assumed) | 32 µg/mL |

Report MIC SA for each item below.
1. CCCCN(CC(N)=O)C(=O)CN(CCCCN)C(=O)CN(Cc1cccc2ccccc12)C(=O)CN(C)C(=O)CN(Cc1ccc(C)cc1)C(=O)CN(Cc1cccc2ccccc12)C(=O)CN(CCCCN)C(=O)CNCCCCN [compound 9] (H-[Nlys][Nlys][N(1-naphthylmethyl)Gly][N(4-MeBn)Gly][Sar][N(1-naphthylmethyl)Gly][Nlys][NBuGly]-NH2; N-terminus assumed)
2. CCCCN(CC(N)=O)C(=O)CNC(=O)CN(Cc1cccc2ccccc12)C(=O)CN(CCCCN)C(=O)CN(Cc1ccc(C)cc1)C(=O)CN(Cc1cccc2ccccc12)C(=O)CN(CCCCN)C(=O)CNCCCCN [compound 7] (H-[Nlys][Nlys][N(1-naphthylmethyl)Gly][N(4-MeBn)Gly][Nlys][N(1-naphthylmethyl)Gly]G[NBuGly]-NH2; N-terminus assumed)
3. CCCCN(CC(N)=O)C(=O)CN(CCCCN)C(=O)CN(Cc1cccc2ccccc12)C(=O)CN(Cc1ccc(C)cc1)C(=O)CN(Cc1ccc(C)cc1)C(=O)CN(Cc1cccc2ccccc12)C(=O)CN(CCCCN)C(=O)CNCCCCN [compound 10] (H-[Nlys][Nlys][N(1-naphthylmethyl)Gly][N(4-MeBn)Gly][N(4-MeBn)Gly][N(1-naphthylmethyl)Gly][Nlys][NBuGly]-NH2; N-terminus assumed)

1: 16 µg/mL; 2: 16 µg/mL; 3: 8 µg/mL

Report MIC SA for each item below.
1. CCCCN(CC(N)=O)C(=O)CN(CCCCN)C(=O)CN(Cc1cccc2ccccc12)C(=O)CN(CCCCN)C(=O)CN(Cc1ccc(C)cc1)C(=O)CNC(=O)CN(CCCCN)C(=O)CNCCCCN [compound 3] (H-[Nlys][Nlys]G[N(4-MeBn)Gly][Nlys][N(1-naphthylmethyl)Gly][Nlys][NBuGly]-NH2; N-terminus assumed)
2. CCCC[C@@H](NC(=O)[C@@H](CCCCN)NC(=O)[C@@H](Cc1cccc2ccccc12)NC(=O)[C@@H](CCCCN)NC(=O)CN(Cc1ccc(C)cc1)C(=O)CN(Cc1cccc2ccccc12)C(=O)CN(CCCCN)C(=O)CNCCCCN)C(N)=O [compound 13] (H-[Nlys][Nlys][N(1-naphthylmethyl)Gly][N(4-MeBn)Gly][dK][d1Nal][dK][dNle]-NH2; N-terminus assumed)
3. Cc1ccc(CN(CC(=O)N(CCCCN)CC(=O)N(CC(=O)N(CCCCN)CC(=O)NCC(N)=O)Cc2cccc3ccccc23)C(=O)CN(Cc2cccc3ccccc23)C(=O)CN(CCCCN)C(=O)CNCCCCN)cc1 [compound 8] (H-[Nlys][Nlys][N(1-naphthylmethyl)Gly][N(4-MeBn)Gly][Nlys][N(1-naphthylmethyl)Gly][Nlys]G-NH2; N-terminus assumed)
4. CCCCN(CC(N)=O)C(=O)CN(CCCCN)C(=O)CN(Cc1cccc2ccccc12)C(=O)CNC(=O)CN(Cc1ccc(C)cc1)C(=O)CN(Cc1cccc2ccccc12)C(=O)CN(CCCCN)C(=O)CNCCCCN [compound 5] (H-[Nlys][Nlys][N(1-naphthylmethyl)Gly][N(4-MeBn)Gly]G[N(1-naphthylmethyl)Gly][Nlys][NBuGly]-NH2; N-terminus assumed)

1: >64 µg/mL; 2: 8 µg/mL; 3: 32 µg/mL; 4: 32 µg/mL

Note MIC SA for the compound shown: CCCCN(CC(N)=O)C(=O)CN(CCCCN)C(=O)CN(Cc1cccc2ccccc12)C(=O)CN(CCCCN)C(=O)CN(Cc1ccc(C)cc1)C(=O)CN(Cc1cccc2ccccc12)C(=O)CN(CCCCN)C(=O)CNCCCCN [D2] (H-[Nlys][Nlys][N(1-naphthylmethyl)Gly][N(4-MeBn)Gly][Nlys][N(1-naphthylmethyl)Gly][Nlys][NBuGly]-NH2)
8 µg/mL
